test system: (multidrug-resistant, P-gp 170 overexpressing) KB-8511 epidermoid carcinoma cells; assay: Proliferation inhibition of KB-8511 cells (methylene blue staining); type: cell-based, human; settings: KB-8511 cell line (multidrug-resistant, P-gp 170 overexpressing); four days incubation with compound; repeated lines are separate determinations
Listed below: IC50 values for each entry.
Report the figure in nM without appending any unit label.

Take a look at these entries with their results.
1) Cc1nc2cc([C@@H]3C/C=C\CCC[C@H](C)[C@H](O)[C@@H](C)C(=O)C(C)(C)CCC(=O)O3)ccc2n1C [Example 3] ... 62.3
2) Cc1nc2cc([C@@H]3C[C@@H]4O[C@]4(C)CCC[C@H](C)[C@H](O)[C@@H](C)C(=O)C(C)(C)CCC(=O)O3)ccc2n1C [Example 6] ... 1.61
3) Cc1nc2cc([C@@H]3C[C@@H]4O[C@H]4CCC[C@H](C)[C@H](O)[C@@H](C)C(=O)C(C)(C)/C=C/C(=O)O3)ccc2n1C [Example 14] ... 9.92

Ask | So what's the measured IC50 for this one? Cc1nc2cc([C@@H]3C/C=C/CCC[C@H](C)[C@H](O)[C@@H](C)C(=O)C(C)(C)CCC(=O)O3)ccc2n1C [Example 7]
Reply | 49.9

###

Listed below: IC50 values for each entry.
tested on: Human KB-31 epidermoid carcinoma cells; assay: Proliferation inhibition of KB-31 cells (methylene blue staining); assay type: cell-based; settings: KB-31 cell line; four days incubation with compound; repeated lines are separate determinations

Take a look at these entries with their results.
1) Cc1nc2cc([C@@H]3C[C@@H]4O[C@H]4CCC[C@H](C)[C@H](O)[C@@H](C)C(=O)C(C)(C)/C=C/C(=O)O3)ccc2n1C ... 3.5 nM
2) Cc1nc2cc([C@@H]3C/C=C/CCC[C@H](C)[C@H](O)[C@@H](C)C(=O)C(C)(C)CCC(=O)O3)ccc2n1C ... 41.9 nM

Turning now to a further record.
Ask | Give IC50 (Human KB-31 epidermoid carcinoma cells) of the following compound: `Cc1nc2cc([C@@H]3C/C=C\CCC[C@H](C)[C@H](O)[C@@H](C)C(=O)C(C)(C)CCC(=O)O3)ccc2n1C`
Reply | 62 nM

Data provenance: patent US7825141B2
